Assay: Clearance in dog at 2.5 mg/kg, po or 2 mg/kg, iv
Details: in vivo
REPORTED_PROPERTY: clearance (L/h/kg)
Give the number; L/h/kg is assumed, so skip it.

// sample CCOc1ccc(-c2ccc(-c3cc(CC(=O)[O-])ccc3OC)c(CN(CC)C(=O)C3CC3)c2)cn1.[Na+] , its clearance was 0.03

* * *

Target: hERG (KCNH2) (Homo sapiens)
Sequence (Q12809 whole entry): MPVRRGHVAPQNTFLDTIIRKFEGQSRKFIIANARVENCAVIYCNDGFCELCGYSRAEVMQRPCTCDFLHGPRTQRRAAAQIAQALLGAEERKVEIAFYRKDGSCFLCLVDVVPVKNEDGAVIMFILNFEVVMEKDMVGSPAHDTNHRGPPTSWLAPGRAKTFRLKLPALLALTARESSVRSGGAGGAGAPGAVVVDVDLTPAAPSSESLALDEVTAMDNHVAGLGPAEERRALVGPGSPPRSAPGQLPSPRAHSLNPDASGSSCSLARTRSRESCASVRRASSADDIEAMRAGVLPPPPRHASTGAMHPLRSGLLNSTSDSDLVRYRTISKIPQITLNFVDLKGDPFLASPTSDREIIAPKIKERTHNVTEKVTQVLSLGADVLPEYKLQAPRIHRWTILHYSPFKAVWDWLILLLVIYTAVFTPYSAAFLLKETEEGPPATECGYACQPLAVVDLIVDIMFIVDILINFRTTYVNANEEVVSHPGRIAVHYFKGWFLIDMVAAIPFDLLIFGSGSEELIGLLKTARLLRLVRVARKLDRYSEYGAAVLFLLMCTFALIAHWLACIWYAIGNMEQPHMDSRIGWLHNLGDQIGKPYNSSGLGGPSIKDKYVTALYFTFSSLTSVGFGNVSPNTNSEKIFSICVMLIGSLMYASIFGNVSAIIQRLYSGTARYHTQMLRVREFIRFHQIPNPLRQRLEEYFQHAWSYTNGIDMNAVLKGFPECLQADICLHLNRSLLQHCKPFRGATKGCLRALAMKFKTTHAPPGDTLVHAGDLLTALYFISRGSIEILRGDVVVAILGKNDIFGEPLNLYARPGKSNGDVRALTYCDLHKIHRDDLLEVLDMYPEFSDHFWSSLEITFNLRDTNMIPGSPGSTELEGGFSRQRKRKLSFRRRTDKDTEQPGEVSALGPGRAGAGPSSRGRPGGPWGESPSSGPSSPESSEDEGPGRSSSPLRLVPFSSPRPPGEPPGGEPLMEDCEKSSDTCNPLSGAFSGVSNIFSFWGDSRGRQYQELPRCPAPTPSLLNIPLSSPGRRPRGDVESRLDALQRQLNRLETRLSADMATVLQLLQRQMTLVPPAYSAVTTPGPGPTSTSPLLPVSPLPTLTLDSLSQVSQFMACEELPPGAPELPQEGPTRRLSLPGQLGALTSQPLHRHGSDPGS
Experiment: Inhibition of human ERG at 10 uM by patch-clamp analysis
REPORTED_PROPERTY: inhibition at 10 µM (%)
Give the number; % is assumed, so skip it.

// sample CCOc1ccc(-c2ccc(-c3cc(CC(=O)[O-])ccc3OC)c(CN(CC)C(=O)C3CC3)c2)cn1.[Na+] , its inhibition at 10 µM was 11

* * *

Assay: Half life in dog at 2.5 mg/kg, po or 2 mg/kg, iv
Conditions: in vivo
REPORTED_PROPERTY: half-life (h)
Give the number; h is assumed, so skip it.

// sample CCOc1ccc(-c2ccc(-c3cc(CC(=O)[O-])ccc3OC)c(CN(CC)C(=O)C3CC3)c2)cn1.[Na+] , its half-life was 6

* * *

Assay: Cmax in dog at 2.5 mg/kg, po or 2 mg/kg, iv
Conditions: in vivo
REPORTED_PROPERTY: Cmax

// sample CCOc1ccc(-c2ccc(-c3cc(CC(=O)[O-])ccc3OC)c(CN(CC)C(=O)C3CC3)c2)cn1.[Na+] , its Cmax was 30 µM

* * *

Entries and their IC50
Molecular target: Prostaglandin D2 receptor 2 (Homo sapiens)
Assay: Displacement of [3H]PGD2 from human CRTh2 receptor expressed in 293 cells by liquid scintillation counting
Assay type: cell-based, HEK293
Give the number; nM is assumed, so skip it.

// known answers, use as guide
IC50 value, target or system Prostaglandin D2 receptor 2 (Homo sapiens), for CCN(Cc1cc(-c2cnn(C)c2)ccc1-c1cc(CC(=O)O)ccc1OC)C(=O)C1CC1 : 27

IC50 value, target or system Prostaglandin D2 receptor 2 (Homo sapiens), for CCOc1ccc(-c2ccc(-c3cc(CC(=O)[O-])ccc3OC)c(CN(CC)C(=O)C3CC3)c2)cn1.[Na+] : 6

IC50 value, target or system Prostaglandin D2 receptor 2 (Homo sapiens), for CCN(Cc1cc(-c2ccc(F)cn2)ccc1-c1cc(CC(=O)O)ccc1OC)C(=O)C1CC1 : 9

IC50 value, target or system Prostaglandin D2 receptor 2 (Homo sapiens), for CCN(Cc1cc(S(C)(=O)=O)ccc1-c1cc(CC(=O)O)ccc1OC)C(=O)OCc1ccccc1 : 5

IC50 value, target or system Prostaglandin D2 receptor 2 (Homo sapiens), for CCN(Cc1cc(C(C)(C)O)ccc1-c1cc(CC(=O)O)ccc1OC)C(=O)OCc1ccccc1 : 12

IC50 value, target or system Prostaglandin D2 receptor 2 (Homo sapiens), for CCN(Cc1cc(C(=O)O)ccc1-c1cc(CC(=O)O)ccc1OC)C(=O)OCc1ccccc1 : 8

Further cases:
IC50 value, target or system Prostaglandin D2 receptor 2 (Homo sapiens), for CCN(Cc1cc(-c2cnc3ccccc3c2)ccc1-c1cc(CC(=O)O)ccc1OC)C(=O)C1CC1 : 7

IC50 value, target or system Prostaglandin D2 receptor 2 (Homo sapiens), for CCN(Cc1cc(F)ccc1-c1cc(CC(=O)O)ccc1OC)C(=O)OCc1ccccc1 : 1

IC50 value, target or system Prostaglandin D2 receptor 2 (Homo sapiens), for CCN(Cc1cc(-c2ncc(OC)cn2)ccc1-c1cc(CC(=O)O)ccc1OC)C(=O)C1CC1 : 27

IC50 value, target or system Prostaglandin D2 receptor 2 (Homo sapiens), for CCN(Cc1cc(NC(C)=O)ccc1-c1cc(CC(=O)O)ccc1OC)C(=O)OCc1ccccc1 : 7

IC50 value, target or system Prostaglandin D2 receptor 2 (Homo sapiens), for CCN(Cc1cc(NS(=O)(=O)c2ccc(Cl)cc2)ccc1-c1cc(CC(=O)O)ccc1OC)C(=O)OCc1ccccc1 : 3

* * *

Target: Cytochrome P450 2C19 (Homo sapiens)
Sequence (P33261 whole entry): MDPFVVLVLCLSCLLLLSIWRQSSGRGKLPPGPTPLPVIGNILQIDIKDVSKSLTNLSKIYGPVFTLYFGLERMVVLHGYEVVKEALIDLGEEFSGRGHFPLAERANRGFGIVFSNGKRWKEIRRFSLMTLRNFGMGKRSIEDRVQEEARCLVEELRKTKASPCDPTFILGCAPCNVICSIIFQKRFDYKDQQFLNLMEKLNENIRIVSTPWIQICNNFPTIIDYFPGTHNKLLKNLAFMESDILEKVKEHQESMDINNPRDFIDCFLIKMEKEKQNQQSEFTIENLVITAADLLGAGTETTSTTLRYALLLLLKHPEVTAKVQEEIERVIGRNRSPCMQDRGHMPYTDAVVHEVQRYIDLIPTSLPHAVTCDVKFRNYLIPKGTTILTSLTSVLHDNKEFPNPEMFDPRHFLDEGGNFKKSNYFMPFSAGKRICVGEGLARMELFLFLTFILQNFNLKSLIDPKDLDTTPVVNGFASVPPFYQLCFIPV
REPORTED_PROPERTY: IC50

// sample CCOc1ccc(-c2ccc(-c3cc(CC(=O)[O-])ccc3OC)c(CN(CC)C(=O)C3CC3)c2)cn1.[Na+] , its IC50 was > 50 µM

* * *

Entries and their pIC50
Target: Prostaglandin D2 receptor 2 (Homo sapiens)
Experiment: Displacement of [3H]PGD2 from human CRTh2 receptor expressed in 293 cells by liquid scintillation counting in presence of 0.2 % HSA
Assay type: cell-based, HEK293
The scale used: pIC50 is minus the common logarithm of the concentration in molar units.

// sample CCN(Cc1cc(S(C)(=O)=O)ccc1-c1cc(CC(=O)O)ccc1OC)C(=O)OCc1ccccc1 , its pIC50 was 8.15

Further cases:
// sample CCN(Cc1cc(-c2ncc(OC)cn2)ccc1-c1cc(CC(=O)O)ccc1OC)C(=O)C1CC1 , its pIC50 was 6.97

// sample CCN(Cc1cc(-c2cnc3ccccc3c2)ccc1-c1cc(CC(=O)O)ccc1OC)C(=O)C1CC1 , its pIC50 was 7.28

// sample CCN(Cc1cc(F)ccc1-c1cc(CC(=O)O)ccc1OC)C(=O)OCc1ccccc1 , its pIC50 was 8.05

* * *

Biological target: Prostacyclin receptor (Homo sapiens, UniProt P43119)
Sequence (P43119 whole entry): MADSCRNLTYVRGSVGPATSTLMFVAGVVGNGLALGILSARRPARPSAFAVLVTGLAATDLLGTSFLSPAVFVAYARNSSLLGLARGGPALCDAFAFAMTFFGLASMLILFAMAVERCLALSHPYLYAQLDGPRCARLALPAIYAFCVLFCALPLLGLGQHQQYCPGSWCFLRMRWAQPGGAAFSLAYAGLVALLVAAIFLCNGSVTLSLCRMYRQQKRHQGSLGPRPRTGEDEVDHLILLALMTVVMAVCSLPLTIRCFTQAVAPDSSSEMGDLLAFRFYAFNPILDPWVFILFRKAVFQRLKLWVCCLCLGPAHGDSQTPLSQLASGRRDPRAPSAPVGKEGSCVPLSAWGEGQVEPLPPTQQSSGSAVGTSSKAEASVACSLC
Assay: Displacement of [3H]iloprost from IP receptor in human 293 cell membrane
REPORTED_PROPERTY: IC50

// sample CCOc1ccc(-c2ccc(-c3cc(CC(=O)[O-])ccc3OC)c(CN(CC)C(=O)C3CC3)c2)cn1.[Na+] , its IC50 was > 100 µM

* * *

Biological target: Peroxisome proliferator-activated receptor alpha (Homo sapiens, UniProt Q07869)
Sequence (Q07869 whole entry): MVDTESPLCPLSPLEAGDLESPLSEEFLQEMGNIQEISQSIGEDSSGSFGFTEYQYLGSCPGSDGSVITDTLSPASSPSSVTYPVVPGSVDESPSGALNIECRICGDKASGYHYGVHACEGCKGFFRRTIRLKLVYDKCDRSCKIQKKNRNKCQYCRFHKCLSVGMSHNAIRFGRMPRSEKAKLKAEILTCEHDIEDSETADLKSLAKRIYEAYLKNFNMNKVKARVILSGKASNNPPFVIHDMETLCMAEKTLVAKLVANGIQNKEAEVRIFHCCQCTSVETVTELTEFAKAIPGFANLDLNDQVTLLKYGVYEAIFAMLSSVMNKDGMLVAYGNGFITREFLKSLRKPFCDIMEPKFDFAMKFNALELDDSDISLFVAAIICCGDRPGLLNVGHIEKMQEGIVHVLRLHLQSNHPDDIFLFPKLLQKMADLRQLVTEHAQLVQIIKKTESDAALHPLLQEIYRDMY
Test: Inhibition of PPAR alpha
pIC50: −log10 of the molar value.
REPORTED_PROPERTY: pIC50

pIC50 value, target or system Peroxisome proliferator-activated receptor alpha (Homo sapiens, UniProt Q07869), for CCOc1ccc(-c2ccc(-c3cc(CC(=O)[O-])ccc3OC)c(CN(CC)C(=O)C3CC3)c2)cn1.[Na+] : < 3.60

* * *

Target: Prostaglandin D2 receptor 2 (Homo sapiens, UniProt Q9Y5Y4)
Sequence (Q9Y5Y4 whole entry): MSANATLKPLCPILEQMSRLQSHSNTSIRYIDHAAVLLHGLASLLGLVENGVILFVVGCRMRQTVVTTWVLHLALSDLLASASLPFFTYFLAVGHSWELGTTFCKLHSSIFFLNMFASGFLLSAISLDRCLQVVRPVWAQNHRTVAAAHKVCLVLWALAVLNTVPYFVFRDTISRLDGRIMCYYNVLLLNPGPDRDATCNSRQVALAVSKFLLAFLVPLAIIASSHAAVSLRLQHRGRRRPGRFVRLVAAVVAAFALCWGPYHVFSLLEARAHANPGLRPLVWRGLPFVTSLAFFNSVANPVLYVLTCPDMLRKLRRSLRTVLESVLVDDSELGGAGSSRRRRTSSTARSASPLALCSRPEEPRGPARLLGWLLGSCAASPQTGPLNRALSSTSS
Assay: Displacement of [3H]PGD2 from human CRTh2 receptor expressed in 293 cells by liquid scintillation counting in presence of 0.2 % HSA
Assay type: cell-based, HEK293
REPORTED_PROPERTY: pIC50
The scale used: pIC50 is minus the common logarithm of the concentration in molar units.

// sample CCN(Cc1cc(NS(=O)(=O)c2ccc(Cl)cc2)ccc1-c1cc(CC(=O)O)ccc1OC)C(=O)OCc1ccccc1 , its pIC50 was 7.05

// sample CCN(Cc1cc(NC(C)=O)ccc1-c1cc(CC(=O)O)ccc1OC)C(=O)OCc1ccccc1 , its pIC50 was 7.22

// sample CCN(Cc1cc(C(C)(C)O)ccc1-c1cc(CC(=O)O)ccc1OC)C(=O)OCc1ccccc1 , its pIC50 was 7.62

// sample CCOc1ccc(-c2ccc(-c3cc(CC(=O)[O-])ccc3OC)c(CN(CC)C(=O)C3CC3)c2)cn1.[Na+] , its pIC50 was 7.51

// sample CCN(Cc1cc(-c2ccc(F)cn2)ccc1-c1cc(CC(=O)O)ccc1OC)C(=O)C1CC1 , its pIC50 was 7.22

// sample CCN(Cc1cc(-c2cnn(C)c2)ccc1-c1cc(CC(=O)O)ccc1OC)C(=O)C1CC1 , its pIC50 was 7.43

// sample CCN(Cc1cc(C(=O)O)ccc1-c1cc(CC(=O)O)ccc1OC)C(=O)OCc1ccccc1 , its pIC50 was 6.60
